measurementDescription: in vivo
appliedConditions: mdx, mouse, po, 5 mg/kg, F
quantityName: bioavailability at 168 h (%)
Value expressed in %; do not type the unit.

Query: bioavailability at 168 h; subject: CCP(=O)(OC)c1ccc2oc(-c3ccc(F)cc3)nc2c1 (racemic)
53.7

###

measurementDescription: Intrinsic clearance in human liver microsomes
appliedConditions: microsomes
quantityName: microsomal CLint (µL/min/mg)
Value expressed in µL/min/mg; do not type the unit.

Query: microsomal CLint; subject: CCS(=O)(=O)c1ccc2oc(-c3ccc4ccccc4c3)nc2c1 [EZUTROMID]
14.4

###

measurementDescription: Volume of distribution in mdx mouse at 1 mg/kg, iv
appliedConditions: mdx, in vivo, Vd
quantityName: Vd (L/kg)
Value expressed in L/kg; do not type the unit.

Query: Vd; subject: CCP(=O)(OC)c1ccc2oc(-c3ccc(F)cc3)nc2c1 (racemic)
1.46
